Every entry's value here was drawn from patent US10144715B2.

- Target of assay: LXR β LBD protein (Homo sapiens (Human))
- Sequence (P55055 222-460 limits assumed): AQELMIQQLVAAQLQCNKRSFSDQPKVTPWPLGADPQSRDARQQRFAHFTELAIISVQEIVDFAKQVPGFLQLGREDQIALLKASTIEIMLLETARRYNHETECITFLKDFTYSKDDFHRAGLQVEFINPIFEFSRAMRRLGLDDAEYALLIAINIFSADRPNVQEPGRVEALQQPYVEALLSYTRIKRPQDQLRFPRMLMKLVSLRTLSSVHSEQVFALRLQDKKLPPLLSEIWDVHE
- Assay comment: biochemical
- Type: binding
- Condition context: read-out: LXRβ Binding Ki
Provide the reported pKi of each item.
Please express pKi as -log10 of the molar concentration.

Record request: pKi value, item `CS(=O)(=O)c1cccc(N2CCN(Cc3ccc(C(F)(F)F)o3)[C@@H](c3ccccc3)C2)c1`
6.68

For the molecule shown here, `CC(C)[C@H]1CN(c2ccc(CO)c(S(C)(=O)=O)c2)CCN1C[C@@H]1CC[C@H](C(F)(F)F)OC1` , give the reported pKi.
8.15

So what's the measured pKi for this one? `CC(C)[C@@H]1CN(c2cccc(S(C)(=O)=O)c2)CCN1c1ccc(C(F)(F)F)c(C2CC2)n1`
8.15

For `CCOC(=O)c1cnc(N2CCN(c3ccc(F)c(S(C)(=O)=O)c3)C[C@H]2C2CC2)nc1C(F)(F)F` , what is its reported pKi?
7.89

Item under review: `CCOC(=O)CCN(C)C(=O)c1cnc(N2CCN(c3ccc(F)c(S(C)(=O)=O)c3)C[C@H]2C(C)C)nc1C(F)(F)F` . Reported pKi?
6.89

Quick check: pKi of `CCOC(=O)c1cnc(N2CCN(c3ccc(-c4nnc(C)o4)c(S(C)(=O)=O)c3)C[C@H]2C(C)C)nc1C(F)(F)F` ?
6.08

Quick one: pKi for `Cc1noc(-c2ccc(N3CCN(c4ncc(CO)c(C(F)(F)F)n4)[C@H](C(C)C)C3)cc2S(C)(=O)=O)n1` ?
6.11

###

- Target of assay: Gal4 DNA binding domain fused to the LBD of LXRα in HEK293 cells (Homo sapiens (Human), UniProt Q13133)
- Sequence (Q13133 209-447): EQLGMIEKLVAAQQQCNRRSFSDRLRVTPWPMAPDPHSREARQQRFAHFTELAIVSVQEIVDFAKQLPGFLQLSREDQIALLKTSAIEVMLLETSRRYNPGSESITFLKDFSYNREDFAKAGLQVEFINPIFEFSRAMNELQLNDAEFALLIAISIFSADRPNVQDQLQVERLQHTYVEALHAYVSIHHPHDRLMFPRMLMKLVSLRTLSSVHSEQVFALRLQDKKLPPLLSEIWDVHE
- Assay comment: LXR luciferase transcriptional reporter gene assay, agonist mode, LXRα
- Assay type: cell-based
- Condition context: agonist mode; read-out: Cell LXRα EC50
EC50 strictly less than 1 µM = 1. Otherwise 0.

Does the reported EC50 of the following compound sit strictly below 1 µM? COC(=O)c1cc(CN2CCN(c3cccc(S(C)(=O)=O)c3)CC2c2ccccc2)ccc1C(F)(F)F (stereo not drawn)
0

In plain terms, does CS(=O)(=O)c1cccc(N2CCN(Cc3ccc(C(F)(F)F)cc3)[C@H](c3ccccc3)C2)c1 (single isomer, unassigned) come in under 1 µM for EC50?
0

Determine if `CCOC(=O)c1cnc(N2CCN(c3ccc(-c4nnc(C)s4)c(S(C)(=O)=O)c3)C[C@H]2C(C)C)nc1C(F)(F)F` shows EC50 strictly lower than 1 µM.
0

# check: EC50 < 1 µM for `CCOC(=O)c1cnc(N2CCN(c3cccc(S(C)(=O)=O)c3)C[C@H]2c2nc(C)cs2)nc1C(F)(F)F`
0

is_below(EC50, 1 µM) for `CC(C)[C@@H]1CN(c2ccc(CO)c(S(C)(=O)=O)c2)CCN1c1ccnc(C(N)=O)c1` ?
0

# strict comparison: is reported EC50 < 1 µM? input = `CC(F)(F)[C@@H]1CN(c2cccc(S(C)(=O)=O)c2)CCN1c1nccc(C(F)(F)F)n1`
0

Does this compound meet the criterion EC50 < 1 µM? COC(=O)c1ccc(N2CCN(Cc3ccc(C(F)(F)F)c(Cl)c3)C(c3ccccc3)C2)cc1S(C)(=O)=O (stereo not drawn)
0

Just wondering, is EC50 of `CC(C)(O)c1cc(CN2CCN(c3cccc(S(C)(=O)=O)c3)C[C@H]2c2ccccc2)ccc1C(F)(F)F` below 1 µM?
0

Does the reported EC50 of `CS(=O)(=O)c1cccc(N2CCN(c3nccc(C(F)(F)F)n3)[C@H](c3ccc(F)cc3)C2)c1` stay below 1 µM?
0

Please determine if `COCCN(C)Cc1cnc(N2CCN(c3ccc(F)c(S(C)(=O)=O)c3)C[C@H]2C(C)C)nc1C(F)(F)F` is below 1 µM in terms of EC50.
0

Please let me know if `CC(C)[C@@H]1CN(c2ccc(-c3nc(C(N)=O)cs3)c(S(C)(=O)=O)c2)CCN1c1ncc(CO)c(C(F)(F)F)n1` shows EC50 below 1 µM.
0

API: query returns whether the compound falls strictly under 1 µM in EC50. Query: `C=C(C)c1cnc(N2CCN(c3ccc(CO)c(S(C)(=O)=O)c3)C[C@H]2C(C)C)nc1C(F)(F)F`
1

I'd appreciate it if you could check whether `CC(C)[C@@H]1CN(c2ccc(CO)c(S(C)(=O)=O)c2)CCN1c1nc(C(F)(F)F)c(C(=O)N(C)C)s1` has EC50 smaller than 1 µM.
1

Please let me know if `CC(C)[C@H]1CN(c2cccc(S(C)(=O)=O)c2)CCN1Cc1ccc(C(F)(F)F)nc1` shows EC50 below 1 µM.
0

Is it true that EC50 reported for `CS(=O)(=O)c1cccc(N2CCN(C[C@H]3CC[C@@H](C(F)(F)F)CC3)[C@@H](c3ccc(F)cc3)C2)c1` is less than 1 µM?
1

###

- Target of assay: LXR α LBD protein (Homo sapiens (Human))
- Sequence (Q13133 209-447): as the sequence (Q13133 209-447) above
- Assay comment: Human LXRα coactivator recruitment FRET assay, agonist mode
- Format: biochemical
- Condition context: agonist mode
I'd be grateful if you could share measured pEC50 for these entries.
Please report pEC50 as the negative decimal logarithm of the molar concentration, giving only the number.

Which pEC50 is reported for this compound? CC(C)OC(=O)N1CCN(c2cccc(S(C)(=O)=O)c2)CC1c1ccccc1 (centres unmarked) [5-8]
4.70

For the compound CC1(c2ccccc2)CN(c2cccc(S(C)(=O)=O)c2)CCN1Cc1ccc(C(F)(F)F)nc1 (centres unmarked) [46-49] , what pEC50 is on record?
6.58

Could you share which pEC50 value was measured for CC(C)c1ccc(CN2CCN(c3cccc(S(C)(=O)=O)c3)CC2c2ccccc2)cn1 (centres unmarked) [46-42] ?
6.01

Given the entry CS(=O)(=O)c1cccc(N2CCN(C[C@H]3CC[C@H](C(F)F)CC3)[C@@H](c3ccccc3)C2)c1 (single isomer, unassigned) [48-19] , report its measured pEC50.
5.73

Which pEC50 value is on record for CC(C)[C@@H]1CN(c2cccc(S(N)(=O)=O)c2)CCN1c1nccc(C(F)(F)F)n1 [7-60] ?
7.08

Field request: pEC50 | item: CS(=O)(=O)c1cccc(N2CCN(C[C@H]3CC[C@@H](C(F)(F)F)CC3)[C@H](c3ccccc3)C2)c1 (single isomer, unassigned) [48-30]
4.89

Sample CS(=O)(=O)c1cc(N2CCN(C[C@H]3CC[C@@H](C(F)(F)F)CC3)[C@H](c3ccccc3)C2)ccc1C(N)=O (single isomer, unassigned) [17-38] — what was its pEC50?
5.47

I am curious: what pEC50 value has been reported for CS(=O)(=O)c1cc(N2CCN(Cc3ccc(C(F)(F)F)nc3)C(c3ccccc3)C2)ccc1F (centres unmarked) [46-52] ?
5.28

Please give the measured pEC50 for this compound: CC(C)c1ccc(CN2CCN(c3cccc(S(C)(=O)=O)c3)C[C@@H]2c2ccccc2)cc1 [46-8]
6.33

May I ask what pEC50 has been recorded for CS(=O)(=O)c1cccc(N2CCN(Cc3ccc(C(F)(F)F)nc3)[C@@H](c3ccccc3Cl)C2)c1 (single isomer, unassigned) [46-57] ?
6.30

Param item = CC(C)[C@@H]1CN(c2ccc(C(F)(F)F)c(S(C)(=O)=O)c2)CCN1C(=O)OC(C)(C)C [Cpd No 3-2] ; retrieve measured pEC50.
4.92

Requested field: pEC50. Item: CS(=O)(=O)c1cccc(N2CCN(Cc3ccc(C(F)(F)F)cc3)[C@@H](c3ccccc3)C2)c1 (single isomer, unassigned) [46-15]
5.82

Can you share its pEC50? I mean this compound: Cc1ccc(CN2CCN(c3cccc(S(C)(=O)=O)c3)CC2c2ccccc2)cn1 (centres unmarked) [46-40]
5.39

###

- Target of assay: Gal4 DNA binding domain fused to the LBD of LXRβ in HEK293 cells (Homo sapiens (Human))
- Assay comment: cell-based
- Condition context: agonist mode
Field: Cell LXRβ efficacy. Provide a value for each of the molecules that follow.

So what does the record say about Cell LXRβ efficacy for CC[C@@H](O)c1cnc(N2CCN(c3ccc(F)c(S(C)(=O)=O)c3)C[C@H]2C(C)C)nc1C(F)(F)F (single isomer, unassigned) ?
49 (15) %

Endpoint output: Cell LXRβ efficacy of CS(=O)(=O)c1cccc(N2CCN(C[C@H]3CC[C@@H](C(F)(F)F)CC3)[C@@H](c3ccccc3)C2)c1 (single isomer, unassigned) . Value?
35%

Given the molecule `CC(C)[C@@H]1CN(c2ccc(F)c(S(C)(=O)=O)c2)CCN1c1ncc(C(=O)N2CC(N)C2)c(C(F)(F)F)n1` , what is its reported Cell LXRβ efficacy?
833 (6) %

What does the data say about its Cell LXRβ efficacy? Entry: COC(=O)c1cnc(N2CCN(c3ccc(F)c(S(C)(=O)=O)c3)CC2C(C)(C)C)nc1C(F)(F)F (stereo not shown)
82 (21) %

Reported Cell LXRβ efficacy for `CC(C)[C@@H]1CN(c2ccc(F)c(S(C)(=O)=O)c2)CCN1C[C@H]1CC[C@@H](C(F)(F)F)CC1` : what is it?
63%

// lookup Cell LXRβ efficacy for `CC(C)[C@@H]1CN(c2cc(F)c(CO)c(S(C)(=O)=O)c2)CCN1c1ncc(CO)c(C(F)(F)F)n1`
16 (46) %

What does the data say about its Cell LXRβ efficacy? Entry: `CS(=O)(=O)c1cc(N2CCN(c3ncc(CO)c(C(F)(F)F)n3)[C@H](c3ccc(F)cc3)C2)ccc1F`
315 (14) %
